Target: Voltage-gated inwardly rectifying potassium channel KCNH2 (Homo sapiens)
READOUT: log10 of IC50 (log10 of the value in µM)
Quick note: numbers are log10 of IC50, with µM as the unit.

Recorded results for 10 compounds are shown here.
- COMPOUND: "O=C1NCCN1CCN1CCC(C2CN(c3ccc(F)cc3)c3ccccc32)CC1 (stereo not given)"
  log10 of IC50: -1.63
- COMPOUND: "COC(=O)C1=CCC2CCC1N2C (stereo in doubt; 41)"
  log10 of IC50: 2.23
- COMPOUND: "c1ccc(-c2[nH]c3ccccc3c2C2CC3CCC(C2)N3c2ccccc2)cc1 (stereo not given)"
  log10 of IC50: -1.75
- COMPOUND: "CCCC(C)C1(CC)C(=O)NC(=O)NC1=O (stereo not given)"
  log10 of IC50: 2.12
- COMPOUND: "CCCCc1oc2ccc(NS(C)(=O)=O)cc2c1C(=O)c1ccc(OCCCN(CCCC)CCCC)cc1"
  log10 of IC50: -0.50
- COMPOUND: "O=C(OC1CC2CC3CC(C1)N2CC3O)c1c[nH]c2ccccc12 (stereo not given)"
  log10 of IC50: 1.08
- COMPOUND: "O=C(OC1Cc2c(O)cc(O)cc2OC1c1cc(O)c(O)c(O)c1)c1cc(O)c(O)c(O)c1 (stereo not given)"
  log10 of IC50: 0.78
- COMPOUND: "CCC(O)(CC)c1cn(-c2ccc(F)cc2)c2ccc(Cl)cc12"
  log10 of IC50: 1.20
- COMPOUND: "CCC1OC(=O)C(C)C(OC2CC(C)(OC)C(O)C(C)O2)C(C)C(OC2OC(C)CC(N(C)C)C2O)C(C)(O)CC(C)/C(=N/OCOCCOC)C(C)C(O)C1(C)O (stereo not given)"
  log10 of IC50: 1.56
- COMPOUND: "CCOC(=O)C1C(OC(=O)c2ccccc2)CC2CCC1N2C (stereo not given)"
  log10 of IC50: 0.08

Lab note: measured log10 of IC50 of CC(C)(C)N1CCC(c2ccccc2)(c2ccccc2)CC1 was -0.07

The recorded log10 of IC50 for CC(C)(C)c1ccc(NC(=O)N2CCN(c3ncccc3Cl)CC2)cc1 is 0.00

Record Cc1cccc(C)c1OCC(C)N (stereo not given) , field log10 of IC50: 1.00

Data point: CCCN1C[C@H](CSC)C[C@@H]2c3cccc4[nH]cc(c34)C[C@H]21 [PERGOLIDE] ; log10 of IC50 = -0.92

----------
Target: UniProt:Q12809
Measured pIC50 of individual entries
Value format note: pIC50 is -log10 of concentration (mol/L); just state the number.

- MOLECULE: "Clc1ccccc1C(c1ccccc1)(c1ccccc1)n1ccnc1"
  READOUT: "pIC50"
  RECORDED_VALUE: 5.52

Now take the following molecule into account.
Item CC1=C2C3OC(=O)C(C)C3C(O)CC2(C)C=CC1=O (stereo not given) ; assay system UniProt:Q12809; pIC50 reported as 3.96

----------
Target: UniProt Q12809
Listed here: items and their measured pIC50.
# reply with the number alone; pIC50 is -log10 of concentration in mol/L

- COMPOUND: "CC(=O)NC(=O)C1CCC(C2N=CC(c3cccc(Br)c3)=N2)CC1 (centres undefined)"
  RECORDED_VALUE: 6.30
- COMPOUND: "CC(C(O)c1ccc(O)cc1)N1CCC(Cc2ccccc2)CC1 (centres undefined)"
  RECORDED_VALUE: 7.00
- COMPOUND: "NC(=O)N1c2ccccc2C=Cc2ccccc21 [CARBAMAZEPINE]"
  RECORDED_VALUE: 3.98
- COMPOUND: "CCC(=O)O[C@@](Cc1ccccc1)(c1ccccc1)[C@@H](C)CN(C)C"
  RECORDED_VALUE: 5.56
- COMPOUND: "Cc1cn2c(N)c(Cl)cc(C(=O)NCC3CCN(CC(C)C)CC3)c2n1"
  RECORDED_VALUE: 5.59
- COMPOUND: "COC(=O)C1=CCC2CCC1N2C (stereo in doubt; 21)"
  RECORDED_VALUE: 5.05
- COMPOUND: "O=C1NCCN1CCN1CC=C(c2cn(-c3ccc(F)cc3)c3ccc(Cl)cc23)CC1"
  RECORDED_VALUE: 8.00
- COMPOUND: "CCC1OC(=O)C(C)C(OC2CC(C)(OC)C(O)C(C)O2)C(C)C(OC2OC(C)CC(N(C)C)C2O)C(C)(OC)CC(C)C(=O)C(C)C(O)C1(C)O (centres undefined)"
  RECORDED_VALUE: 4.48

Now look at this entry.
Lab note: measured pIC50 of Fc1ccc(-n2cc(C3CCNCC3)c3cc(Cl)ccc32)cc1 was 6.69

----------
Target: Voltage-gated inwardly rectifying potassium channel KCNH2 (Homo sapiens, UniProt Q12809)
Sequence (Q12809 whole entry): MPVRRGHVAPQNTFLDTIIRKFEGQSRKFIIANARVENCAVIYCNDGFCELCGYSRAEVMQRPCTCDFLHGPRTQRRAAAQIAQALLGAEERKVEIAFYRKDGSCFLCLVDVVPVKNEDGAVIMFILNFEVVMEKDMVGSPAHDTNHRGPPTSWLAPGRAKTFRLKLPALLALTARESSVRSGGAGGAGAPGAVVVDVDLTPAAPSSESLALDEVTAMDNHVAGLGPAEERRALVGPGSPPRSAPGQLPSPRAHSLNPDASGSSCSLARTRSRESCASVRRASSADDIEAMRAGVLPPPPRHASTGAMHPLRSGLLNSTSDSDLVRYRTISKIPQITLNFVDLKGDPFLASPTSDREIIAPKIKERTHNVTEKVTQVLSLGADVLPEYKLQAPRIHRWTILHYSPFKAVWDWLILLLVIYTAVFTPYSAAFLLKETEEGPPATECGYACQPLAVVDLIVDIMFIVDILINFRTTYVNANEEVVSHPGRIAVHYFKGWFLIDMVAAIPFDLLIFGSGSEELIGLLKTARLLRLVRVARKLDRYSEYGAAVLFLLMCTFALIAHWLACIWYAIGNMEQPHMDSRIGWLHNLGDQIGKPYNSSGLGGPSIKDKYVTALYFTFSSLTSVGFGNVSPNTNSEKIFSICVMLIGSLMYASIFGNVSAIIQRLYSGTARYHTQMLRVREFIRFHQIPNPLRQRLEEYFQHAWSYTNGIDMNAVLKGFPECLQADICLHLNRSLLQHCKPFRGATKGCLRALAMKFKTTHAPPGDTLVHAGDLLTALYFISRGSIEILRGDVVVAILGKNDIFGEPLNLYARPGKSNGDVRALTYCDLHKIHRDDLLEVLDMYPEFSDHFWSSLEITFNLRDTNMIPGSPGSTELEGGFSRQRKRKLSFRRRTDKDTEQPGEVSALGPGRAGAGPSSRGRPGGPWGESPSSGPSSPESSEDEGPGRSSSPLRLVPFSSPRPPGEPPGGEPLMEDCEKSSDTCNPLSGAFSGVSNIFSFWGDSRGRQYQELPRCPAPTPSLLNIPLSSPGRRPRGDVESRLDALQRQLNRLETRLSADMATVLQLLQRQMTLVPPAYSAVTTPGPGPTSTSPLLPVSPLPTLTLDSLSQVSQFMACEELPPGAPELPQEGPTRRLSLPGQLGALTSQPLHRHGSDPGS
READOUT: pIC50
Could you keep your reply to the number by itself?

Below are worked cases with known answers.
- COMPOUND: "CCc1cn(-c2ccc(F)cc2)c2ccc(Cl)cc12"
  READOUT: "pIC50"
  RECORDED_VALUE: 2.46
- COMPOUND: "CCC(O)c1cn(-c2ccc(F)cc2)c2ccc(Cl)cc12 (stereo not given)"
  READOUT: "pIC50"
  RECORDED_VALUE: 2.66
- COMPOUND: "CCC(=O)c1cn(-c2ccc(F)cc2)c2ccc(Cl)cc12"
  READOUT: "pIC50"
  RECORDED_VALUE: 2.7
- COMPOUND: "CCCc1cn(-c2ccc(F)cc2)c2ccc(Cl)cc12"
  READOUT: "pIC50"
  RECORDED_VALUE: 1.59

The compound CC(O)c1cn(-c2ccc(F)cc2)c2ccc(Cl)cc12 (stereo not given) , tested on Voltage-gated inwardly rectifying potassium channel KCNH2 (Homo sapiens, UniProt Q12809), showed pIC50 of 2.34

----------
Target: UniProt Q12809
Lab note: compare IC50 with 40 µM, writing True if less and False if equal or more.

- COMPOUND: "O=C(NCCN1CCOCC1)c1ccc(Cl)cc1 [MOCLOBEMIDE]"
  TESTED_SYSTEM: "UniProt Q12809"
  CLASS_ASSIGNMENT: "False"

In: Lab log: compare recorded IC50 with 40 µM; is it strictly lower for CCCCCCCN(CC)CCCCc1ccc([N+](=O)[O-])cc1 ?
Out: True

In: IC50 strictly < 40 µM for this compound? Cc1cccc(C)c1NC(=O)C1CCCCN1C (centres undefined) [MEPIVACAINE]
Out: False

In: Take the compound CN1C2CCC1C(C(=O)O)C(OC(=O)c1ccccc1)C2 (centres undefined) and say whether its IC50 is less than 40 µM.
Out: False

In: Would you kindly verify if IC50 of CN(C)CCCn1cc(C2=C(c3c[nH]c4ccccc34)C(=O)NC2=O)c2ccccc21 is strictly less than 40 µM?
Out: True

In: Is it true that IC50 reported for CO[C@@H]1[C@@H](O[C@@H]2O[C@H](C)[C@@H](O[C@H]3C[C@@](C)(O)[C@@H](OC(=O)CC(C)C)[C@H](C)O3)[C@H](N(C)C)[C@H]2O)[C@@H](CC=O)C[C@@H](C)[C@@H](O)/C=C\C=C\C[C@@H](C)OC(=O)C[C@H]1OC(C)=O is less than 40 µM?
Out: False

In: Take the compound COc1ccc(CC(=O)NCc2ccccc2-c2ccccc2C(=O)NCCc2cccnc2)cc1 and say whether its IC50 is less than 40 µM.
Out: True

In: Regarding COc1ccc(Cc2nccc3cc(OC)c(OC)cc23)cc1OC , kindly confirm whether its IC50 is beneath 40 µM.
Out: True

In: Given the entry COc1ccc2cc3[n+](cc2c1OC)CCc1cc2c(cc1-3)OCO2 , would its reported IC50 be below 40 µM?
Out: False

In: Lab log: compare recorded IC50 with 40 µM; is it strictly lower for CC(C)(C)c1ccc2c(ccn2-c2ccc(F)cc2)c1 ?
Out: True

In: Consider O=C1NCCN1CCN1CCC(c2cn(C3CCCCC3)c3ccc(Cl)cc23)CC1 . Does its IC50 lie strictly below 40 µM?
Out: True

In: hey, is IC50 for CCOc1cc(N)c(Cl)cc1C(=O)NCC1CN(Cc2ccc(F)cc2)CCO1 (centres undefined) [MOSAPRIDE] lower than 40 µM or not?
Out: True

In: Problem: For the compound CCCC1NC(C)C2C(=O)N=C(c3cc(S(=O)(=O)N4CCN(CC)CC4)ccc3OCC)NN12 (centres undefined) , is IC50 under 40 µM?
Out: True

In: Lab log: compare recorded IC50 with 40 µM; is it strictly lower for COc1ccc(CC(=O)Nc2cc3c(cc2[N+](=O)[O-])OC(C)(C)[C@H](O)[C@H]3NC2CC2)cc1 ?
Out: False
